Attribution: patent US20250320278A1

Measured pKd, listed per entry.
- assay-system: SARS-CoV-2 N protein RNA-binding domain (SARS-CoV-2, UniProt P0DTC9 44-180)
- experiment: Octet (BLI) kinetics
pKd: −log10 of the molar value.

binder	pKd
NP3-C5 (antibody, V domains shown) VH: QIQLVQSGPELKTPGETVKISCKASGYTFTNCGMHWVKQAPGKGLKWMGWINTYTGEPIYADDFKRRFAFSLETSASTAYLQINNLNNEDTASYFCARRDDVYYVAGFDYWGQGTTVTVFS VL: DIQMTQSPASLSVSVGETVTITCRASENIYSNLAWYQQKQGKSPQLLVYGATDLADGVPSRFSGSGSGTQYSLKINSLQSEDFGSYYCQHFWGTPWTFGGGTKLELK	9.21
NP3-A11 (antibody, V domains shown) VH: EVQLQESGPELKKPGETVKISCKVSGYTFTNYGMNWVKQAPGKGLKWMGWINTYTGEPKYGDDFKGRFALSLETSAGTAYLRINNLKNEDTATYFCARSHGNYENHFDYWGQGTTLTVSS VL: DIQMTQSPSSLSVSVGETVTITCRASENIYSSLAWYQQKQGKSPQLLVYTATDLADGVPSRFSGSGSGSQYSLRINSLQSEDFGSYYCQHFWGFPWTFGGGTKLEIK	9.00
